Each item that follows carries a reported inhibition at 10 µM.
# Test system: SARS-CoV-2
# PROTOCOL DESCRIPTION: Antiviral assay in infected Vero E6 cells (ATP quantification, Cell Titer Glo)
# ASSAY SETUP: Severe acute respiratory syndrome coronavirus 2, Vero C1008, 72 h, read-out: Antiviral Activity, 10 uM (cell viability assay), 10 uM; Vero E6 cells, MOI 0.05, 72 h

Solved cases (2 shown):
# MOLECULE, OBSERVABLE, EXPERIMENTAL VALUE
records = [
    ("Cc1ccc(NC(=O)CCCCNc2cccc3c2CN(C2CCC(=O)NC2=O)C3=O)cc1C(=O)N[C@H](C)c1cccc2ccccc12 (stereo partly drawn) [TS124]", "inhibition at 10 µM", "< 0%"),
    ("Cc1ncsc1-c1ccc(CNC(=O)[C@@H]2C[C@@H](O)CN2C(=O)[C@@H](NC(=O)CCCCN2CCN(C(=O)Nc3cc(F)cc(CNC(=O)C4CCN([C@H](C)c5cccc6ccccc56)CC4)c3)CC2)C(C)(C)C)cc1 [TS558]", "inhibition at 10 µM", "< 0%"),
]

Next up:
Quote inhibition at 10 µM reported for Cc1ccc(NC(=O)CCCCOc2cc3c4c(cccc4c2)C(=O)N(C2CCC(=O)NC2=O)C3=O)cc1C(=O)N[C@H](C)c1cccc2ccccc12 (stereo partly drawn) [TS251] please.
< 0%

====

# TARGET ENTITY: UniProt:P0DTD1
pIC50: −log10 of the molar value.
OBSERVABLE: pIC50

# COMPOUND, TARGET ENTITY, EXPERIMENTAL VALUE
rows = [
    ("Cc1ccc(NC(=O)CCCCCOc2cc(-c3scnc3C)ccc2CNC(=O)[C@@H]2C[C@@H](O)CN2C(=O)[C@@H](NC(=O)C2(F)CC2)C(C)(C)C)cc1C(=O)N[C@H](C)c1cccc2ccccc12 (stereo in doubt) [TS291]", "UniProt:P0DTD1", "< 4.60"),
    ("Cc1ccc(NC2CCNCC2)cc1C(=O)N[C@H](C)c1cccc(-c2ccc(CNC(=O)CCCCCNC(=O)COc3ccc(C4CCC(=O)NC4=O)cc3)s2)c1 (stereo partly drawn) [Compound C10778G]", "UniProt:P0DTD1", "> 6.00"),
]

Here is the next item to consider.
// fetch pIC50 for Cc1ccc(NC(=O)CCCCNc2cccc3c2C(=O)N(C2CCC(=O)NC2=O)C3=O)cc1C(=O)N[C@H](C)c1cccc2ccccc12 (stereo partly drawn) [TS267] ; system: UniProt:P0DTD1
> 5.00

====

# TARGET ENTITY: SARS-CoV-2 PLpro (Severe acute respiratory syndrome coronavirus 2)
pIC50: −log10 of the molar value.
Each record here notes measured pIC50.

# COMPOUND, OBSERVABLE, EXPERIMENTAL VALUE
measured = [
    ("Cc1ccc(C(=O)NCCCCN2CCN(C(=O)Nc3cc(F)cc(CNC(=O)C4CCN([C@H](C)c5cccc6ccccc56)CC4)c3)CC2)cc1N1CCC(=O)NC1=O", "pIC50", "> 5.00"),
]

Would you please give the reported pIC50 of C[C@H](c1cccc2ccccc12)N1CCC(C(=O)NCc2cc(F)cc(NC(=O)N3CCN(CCOCCOCCOCCOc4cccc5c4C(=O)N(C4CCC(=O)NC4=O)C5=O)CC3)c2)CC1 (stereo partly drawn) with SARS-CoV-2 PLpro (Severe acute respiratory syndrome coronavirus 2)?
> 5.00

Provide pIC50, system SARS-CoV-2 PLpro (Severe acute respiratory syndrome coronavirus 2), entry Cc1ccc(NC(=O)CCCCOc2cc3c4c(cccc4c2)C(=O)N(C2CCC(=O)NC2=O)C3=O)cc1C(=O)N[C@H](C)c1cccc2ccccc12 (stereo partly drawn)
4.60 to 5.00

====

Heads up, these molecules all have IC50 values measured for SARS-CoV-2 PLpro (Severe acute respiratory syndrome coronavirus 2).

The examples below pair each entry with its known result.
# MOLECULE, IC50
records = [
    ("C[C@H](c1cccc2ccccc12)N1CCC(C(=O)NCc2cc(F)cc(NC(=O)N3CCN(CCCCNC(=O)COc4ccc(C5CCC(=O)NC5=O)cc4)CC3)c2)CC1 (stereo partly drawn) [TS526]", "< 10 µM"),
    ("Cc1ccc(NC(=O)CCOCCNc2cccc3c2C(=O)N(C2CCC(=O)NC2=O)C3=O)cc1C(=O)N[C@H](C)c1cccc2ccccc12 (stereo partly drawn) [TS144]", "10 to 25 µM"),
    ("C[C@H](c1cccc2ccccc12)N1CCC(C(=O)NCc2cc(F)cc(NC(=O)N3CCN(CC4CCN(c5ccc6c(c5)C(=O)N(C5CCC(=O)NC5=O)C6=O)CC4)CC3)c2)CC1 (stereo partly drawn) [TS535]", "10 to 25 µM"),
    ("Cc1ccc(NC2CCNCC2)cc1C(=O)N[C@H](C)c1cccc(-c2ccc(CNC(=O)CCCNc3ccc4c(c3)C(=O)N(C3CCC(=O)NC3=O)C4=O)s2)c1 (stereo partly drawn) [Compound C10778E]", "< 1 µM"),
    ("Cc1ccc(NC2CCNCC2)cc1C(=O)N[C@H](C)c1cccc(-c2ccc(CNC(=O)CCCCNC(=O)COc3ccc(C4CCC(=O)NC4=O)cc3)s2)c1 (stereo partly drawn) [Compound C10778F]", "< 10 µM"),
]

API: the following record is the query input.
Consider the molecule Cc1ccc(NC2CCNCC2)cc1C(=O)N[C@H](C)c1cccc(-c2ccc(CNC(=O)CCCCCOc3cccc4c3C(=O)N(C3CCC(=O)NC3=O)C4=O)s2)c1 (stereo partly drawn) [Compound C10778C] and give its recorded IC50.
< 10 µM

====

We begin with a simple list: items and their reported inhibition at 10 µM.
# Tested on: SARS-CoV-2
# PROTOCOL DESCRIPTION: Antiviral assay in infected Vero E6 cells (ATP quantification, Cell Titer Glo)
# ASSAY SETUP: Severe acute respiratory syndrome coronavirus 2, Vero C1008, 72 h, read-out: Antiviral Activity, 10 uM (cell viability assay), 10 uM; Vero E6 cells, MOI 0.05, 72 h

Some solved cases for reference:
# COMPOUND, inhibition at 10 µM
rows = [
    ("C[C@H](c1cccc2ccccc12)N1CCC(C(=O)NCc2cc(F)cc(NC(=O)N3CCN(CCCCCCOc4cccc5c4C(=O)N(C4CCC(=O)NC4=O)C5=O)CC3)c2)CC1 (some centres unmarked)", "< 25%"),
    ("C[C@H](c1cccc2ccccc12)N1CCC(C(=O)NCc2cc(F)cc(NC(=O)N3CCN(CCOCCOCCOCCOc4cccc5c4C(=O)N(C4CCC(=O)NC4=O)C5=O)CC3)c2)CC1 (some centres unmarked)", "< 25%"),
    ("Cc1ccc(NC(=O)CCOCCNc2cccc3c2C(=O)N(C2CCC(=O)NC2=O)C3=O)cc1C(=O)N[C@H](C)c1cccc2ccccc12 (some centres unmarked)", "< 0%"),
]

Report inhibition at 10 µM for `Cc1ccc(NC(=O)CCCCOc2cc(-c3scnc3C)ccc2CNC(=O)[C@@H]2C[C@@H](O)CN2C(=O)[C@@H](NC(=O)C2(F)CC2)C(C)(C)C)cc1C(=O)N[C@H](C)c1cccc2ccccc12`
< 0%

Please report the measured inhibition at 10 µM for C[C@H](c1cccc2ccccc12)N1CCC(C(=O)NCc2cc(F)cc(NC(=O)N3CCN(CCOc4ccc5c(c4)C(=O)N(C4CCC(=O)NC4=O)C5=O)CC3)c2)CC1 (some centres unmarked)
< 25%

====

pIC50: −log10 of the molar value.
Quick record: pIC50, SARS-CoV-2 PLpro (Severe acute respiratory syndrome coronavirus 2).

Solved cases (5 shown):
# COMPOUND, pIC50
rows = [
    ("C[C@H](c1cccc2ccccc12)N1CCC(C(=O)NCc2cc(F)cc(NC(=O)N3CCN(CCCCCCOc4ccc5c(c4)C(=O)N(C4CCC(=O)NC4=O)C5=O)CC3)c2)CC1 (stereo partly shown) [TS534]", "> 5.00"),
    ("C[C@H](c1cccc2ccccc12)N1CCC(C(=O)NCc2cc(F)cc(NC(=O)N3CCN(CCCCOc4ccc5c(c4)C(=O)N(C4CCC(=O)NC4=O)C5=O)CC3)c2)CC1 (stereo partly shown) [TS530]", "> 5.00"),
    ("Cc1ccc(NC2CCNCC2)cc1C(=O)N[C@H](C)c1cccc(-c2ccc(CNC(=O)CCCOc3cccc4c3C(=O)N(C3CCC(=O)NC3=O)C4=O)s2)c1 (stereo partly shown) [Compound C10778A]", "> 6.00"),
    ("Cc1ccc(NC(=O)CCCCCCC(=O)N[C@H](C(=O)N2C[C@H](O)C[C@H]2C(=O)NCc2ccc(-c3scnc3C)cc2)C(C)(C)C)cc1C(=O)N[C@H](C)c1cccc2ccccc12 [TS310]", "< 4.60"),
    ("Cc1ccc(NC(=O)CCCCNc2cccc3c2CN(C2CCC(=O)NC2=O)C3=O)cc1C(=O)N[C@H](C)c1cccc2ccccc12 (stereo partly shown) [TS124]", "> 5.00"),
]

Consider the compound C[C@H](c1cccc2ccccc12)N1CCC(C(=O)NCc2cc(F)cc(NC(=O)N3CCN(CCCCC(=O)N4CCN(c5ccc(N6CCC(=O)NC6=O)cc5)CC4)CC3)c2)CC1 [TS553] . State its measured pIC50.
> 5.00

Give pIC50 for Cc1ccc(NC(=O)CCCCC(=O)N[C@H](C(=O)N2C[C@H](O)C[C@H]2C(=O)NCc2ccc(-c3scnc3C)cc2)C(C)(C)C)cc1C(=O)N[C@H](C)c1cccc2ccccc12 [TS309]
4.60 to 5.00

Supply reported pIC50 belonging to this compound: Cc1ccc(NC(=O)CCOCCNc2ccc3c4c(cccc24)C(=O)N(C2CCC(=O)NC2=O)C3=O)cc1C(=O)N[C@H](C)c1cccc2ccccc12 (stereo partly shown) [Compound C10778H]
< 4.60

Tell us which pIC50 value is on record for Cc1ccc(NC(=O)CCCNc2cccc3c2C(=O)N(C2CCC(=O)NC2=O)C3=O)cc1C(=O)N[C@H](C)c1cccc2ccccc12 (stereo partly shown) [TS145]
> 5.00

Please report pIC50 for the following compound: C[C@H](c1cccc2ccccc12)N1CCC(C(=O)NCc2cc(F)cc(NC(=O)N3CCN(CCCCC(=O)N4CCN(c5ccc(C6CCC(=O)NC6=O)cc5)CC4)CC3)c2)CC1 (stereo partly shown) [TS551]
> 5.00

Please give the documented pIC50 of Cc1ccc(NC(=O)CCOCCOCCNc2ccc3c4c(cccc24)C(=O)N(C2CCC(=O)NC2=O)C3=O)cc1C(=O)N[C@H](C)c1cccc2ccccc12 (stereo partly shown) [TS170]
> 5.00

Please indicate pIC50 recorded for C[C@H](c1cccc2ccccc12)N1CCC(C(=O)NCc2cc(F)cc(NC(=O)N3CCN(CCOCCOc4cccc5c4C(=O)N(C4CCC(=O)NC4=O)C5=O)CC3)c2)CC1 (stereo partly shown) [TS424]
> 5.00

Give recorded pIC50. C[C@H](c1cccc2ccccc12)N1CCC(C(=O)NCc2cc(F)cc(NC(=O)N3CCN(CCCCCCCCOc4ccc5c(c4)C(=O)N(C4CCC(=O)NC4=O)C5=O)CC3)c2)CC1 (stereo partly shown) [TS516]
4.60 to 5.00
